procedure text: Relative inhibition of PDE11 and PDE5
assay metric: Selectivity ratio
Please respond with just the number, no unit label.

Data request: // returns reported Selectivity ratio for input O=C1[C@H]2Cc3c([nH]c4ccccc34)[C@@H](c3ccc4c(c3)OCO4)N2C(=O)CN1[C@@H]1CCN(CCc2ncc[nH]2)C1
Data returned: 2.9

Data request: // returns reported Selectivity ratio for input CCCCCN1CC[C@@H](N2CC(=O)N3[C@H](c4ccc5c(c4)OCO5)c4[nH]c5ccccc5c4C[C@@H]3C2=O)C1
Data returned: 2.3

Data request: // returns reported Selectivity ratio for input COCCCN1CC[C@@H](N2CC(=O)N3[C@H](c4ccc5c(c4)OCO5)c4[nH]c5ccccc5c4C[C@@H]3C2=O)C1
Data returned: 3

Data request: // returns reported Selectivity ratio for input O=C1[C@H]2Cc3c([nH]c4ccccc34)[C@@H](c3ccc4c(c3)OCO4)N2C(=O)CN1[C@@H]1CCN(CCc2cccnc2)C1
Data returned: 1.3

Data request: // returns reported Selectivity ratio for input C=CCCN1CC[C@@H](N2CC(=O)N3[C@H](c4ccc5c(c4)OCO5)c4[nH]c5ccccc5c4C[C@@H]3C2=O)C1
Data returned: 3

Data request: // returns reported Selectivity ratio for input Cn1ccnc1CCN1CC[C@@H](N2CC(=O)N3[C@H](c4ccc5c(c4)OCO5)c4[nH]c5ccccc5c4C[C@@H]3C2=O)C1 (stereo in doubt; form 2)
Data returned: 2

Data request: // returns reported Selectivity ratio for input O=C1[C@H]2Cc3c([nH]c4ccccc34)[C@@H](c3ccc4c(c3)OCO4)N2C(=O)CN1[C@@H]1CCN(CCc2ccccn2)C1
Data returned: 1.4

Data request: // returns reported Selectivity ratio for input CN(C)CC(=O)CN1CC[C@@H](N2CC(=O)N3[C@H](c4ccc5c(c4)OCO5)c4[nH]c5ccccc5c4C[C@@H]3C2=O)C1
Data returned: 2.4

Data request: // returns reported Selectivity ratio for input O=C1[C@H]2Cc3c([nH]c4ccccc34)[C@@H](c3ccc4c(c3)OCO4)N2C(=O)CN1[C@@H]1CCN(CCC2CC2)C1
Data returned: 2.7

Data request: // returns reported Selectivity ratio for input O=C1[C@H]2Cc3c([nH]c4ccccc34)[C@@H](c3ccc4c(c3)OCO4)N2C(=O)CN1[C@@H]1CCN(CCc2cnccn2)C1
Data returned: 2.1

Data request: // returns reported Selectivity ratio for input Cn1ccnc1CCN1CC[C@@H](N2CC(=O)N3[C@H](c4ccc5c(c4)OCO5)c4[nH]c5ccccc5c4C[C@@H]3C2=O)C1 (stereo in doubt; form 1)
Data returned: 2.6

Data request: // returns reported Selectivity ratio for input NC(=O)CCN1CC[C@@H](N2CC(=O)N3[C@H](c4ccc5c(c4)OCO5)c4[nH]c5ccccc5c4C[C@@H]3C2=O)C1
Data returned: 5.7

Data request: // returns reported Selectivity ratio for input CCNC(=O)CCN1CC[C@@H](N2CC(=O)N3[C@H](c4ccc5c(c4)OCO5)c4[nH]c5ccccc5c4C[C@@H]3C2=O)C1
Data returned: 1.2

Data request: // returns reported Selectivity ratio for input O=C(CCN1CC[C@@H](N2CC(=O)N3[C@H](c4ccc5c(c4)OCO5)c4[nH]c5ccccc5c4C[C@@H]3C2=O)C1)N1CCC1
Data returned: 1.2

Data request: // returns reported Selectivity ratio for input CN(C)C(=O)CCN1CC[C@@H](N2CC(=O)N3[C@H](c4ccc5c(c4)OCO5)c4[nH]c5ccccc5c4C[C@@H]3C2=O)C1
Data returned: 1.9

From: ChEMBL document CHEMBL1136701
